Target: T1, human GPRC5D (human, UniProt Q9NZD1 1-345)
T1 construct: on transfected HEK293 or RBL cells, or endogenous on MM1R, H929, OPM2, LP-1, JIM3 and patient plasma cells; also called G-protein coupled receptor family C group 5 member D; hGPRC5D
T1 sequence (Q9NZD1 whole entry): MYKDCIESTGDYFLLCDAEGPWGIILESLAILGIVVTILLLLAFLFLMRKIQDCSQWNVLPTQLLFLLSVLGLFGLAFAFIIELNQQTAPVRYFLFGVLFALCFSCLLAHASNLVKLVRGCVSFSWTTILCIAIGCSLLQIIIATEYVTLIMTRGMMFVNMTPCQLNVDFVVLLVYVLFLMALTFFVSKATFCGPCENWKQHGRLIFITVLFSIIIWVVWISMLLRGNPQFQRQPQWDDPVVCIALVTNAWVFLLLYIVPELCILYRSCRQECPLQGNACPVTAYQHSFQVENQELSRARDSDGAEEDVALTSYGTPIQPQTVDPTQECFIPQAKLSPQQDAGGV
Assay: FACS, human GPRC5D cells
measurement label: binding result

binder	measurement label	result
GC5B483 (antibody, IgG4, V domains shown, GC5B164 variant D55K, W33F; IgG4 S228P, L234A, L235A; also called GC5H266) VH: EVQLVQSGAEVKKPGESLKISCKGSGYSFTSYFIGWVRQMPGKGLEWMGIIYPGKSDTRYSPSFQGQVTISADKSISTAYLQWSSLKASDTAMYYCARVYSFGGRHKALFDYWGQGTLVTVSS VL: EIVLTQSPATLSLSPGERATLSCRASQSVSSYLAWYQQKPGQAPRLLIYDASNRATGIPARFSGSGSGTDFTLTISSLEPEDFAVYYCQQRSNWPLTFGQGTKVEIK	binding result	binds
GC5B471 (antibody, V domains shown, GC5B164 PTM variant, Hc GC5H278) VH: EVQLVQSGAEVKKPGESLKISCKGSGYSFTSYYIGWVRQMPGKGLEWMGIIYPGASDTRYSPSFQGQVTISADKSISTAYLQWSSLKASDTAMYYCARVYSFGGRHKALFDYWGQGTLVTVSS VL: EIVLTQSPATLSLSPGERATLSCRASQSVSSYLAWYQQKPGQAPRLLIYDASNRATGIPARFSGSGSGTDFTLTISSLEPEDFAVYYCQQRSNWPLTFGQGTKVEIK	binding result	binds
GC5B481 (antibody, V domains shown, GC5B164 PTM variant, Hc GC5H268) VH: EVQLVQSGAEVKKPGESLKISCKGSGYSFTSYYIGWVRQMPGKGLEWMGIIYPGKSDTRYSPSFQGQVTISADKSISTAYLQWSSLKASDTAMYYCARVYSFGGRHKALFDYWGQGTLVTVSS VL: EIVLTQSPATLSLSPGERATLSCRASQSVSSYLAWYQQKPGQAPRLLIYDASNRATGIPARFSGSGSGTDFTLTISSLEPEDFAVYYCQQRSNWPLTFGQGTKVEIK	binding result	binds
